// data source = PubChem BioAssay (NCI)

- Tested on: HT29 colon
- Assay text: NCI-60 one-dose screen, 48 h
- Measurement conditions: 10 µM
About 83,000 compounds went through this panel and 20% of them were active in at least one assay; those are over-represented in the sample as a whole. Active and inactive are the calls of the source. Rule for the calls: active = growth percent below 10; inactive = the rest.
Would you mind answering with one of these outcomes? Y = active, N = inactive

Take a look at these entries with their results.
CC/C(=C(/c1ccc(OCCN(C)C)cc1)c1ccc(OC(=O)CCC(=O)c2c(C)[nH]c(/C=C3\N=C(c4ccc[nH]4)C=C3OC)c2C)cc1)c1ccccc1    Y
Cc1cc(O)c(C(C)(C)C)cc1Sc1cc(C(C)(C)C)c(O)cc1C    N
CCN(CC)CCC(CNc1c(C)cnc2cc(Cl)ccc12)c1ccc(Cl)c(Cl)c1 (configuration not stated)    N
COc1ccc2c(c1)O/C(=C\c1ncc([N+](=O)[O-])n1C)C2=O    Y
Cc1cc(N(CCCNc2ccnc3cc(Cl)ccc23)Cc2ccc3c(c2)OCO3)nc(N2CCOCC2)n1    Y

Called result for Cc1ccc(Nc2cc(C)nc(NCCCNc3ccnc4cc(Cl)ccc34)n2)cc1
Y

# outcome recorded in this test, key = CC(=O)[C@H]1CC[C@H]2[C@@H]3CCC4=CC(=O)C=C[C@]4(C)[C@H]3CC[C@]12C
N

Kindly provide the recorded test outcome for the following molecule: COc1ccc(Cl)cc1C(=O)Nc1nc2ccc(Cl)cc2s1
N

Record lookup: outcome of this test for Cc1cccc2c(NCCN(C)C)c3cccc(C(=O)NCCN(C)C)c3nc12 ?
Y

Status in this test for CC12O[C@H](C[C@@H](OC(=O)c3ccccc3)[C@H]1O)n1c3ccccc3c3c4c(c5c6ccccc6n2c5c31)C(=O)NC4=O ?
N

In this assay, the call recorded for O=C1CC[C@@H]2CCCC[C@@H]2C1 was what?
N

Status in this test for O=[N+]([O-])c1cccc(N=Cc2ccc3c(c2)OCO3)c1 ?
N

Record lookup: outcome of this test for CCc1ccc2c(c1)N(CCO)C1=C(C(=O)OC1)C2c1ccccc1 (configuration not stated) ?
N

For Cc1ccc(C(=O)Nc2cccc(F)c2)cc1NC(=O)C1(c2ncnc3[nH]ccc23)CC1 , which call appears in the assay record?
N

Short answer needed: outcome of this test for COc1cc(/C(=C2/O[C@@H]([C@H]3COC(C)(C)O3)[C@H]3OC(C)(C)O[C@@H]23)c2ccc3ccccc3c2)cc(OC)c1OC ?
N

Dear all, I need the recorded test outcome for O=C(CCCCC(=O)Nc1ccc2c(c1)/C(=C/c1ccc[nH]1)C(=O)N2)NO , thank you.
N

Called result for Cc1ccc(S(=O)(=O)OCCN(CCOS(=O)(=O)c2ccc(C)cc2)c2c[nH]c(=O)[nH]c2=O)cc1
N

State the result this test recorded for c1ccc2c(c1)oc1c3c(ccc12)NCCC3 .
N

What did the test return for Nc1c(C(=O)Nc2cccc3ccccc23)sc2nc3c(cc12)C(=O)CCC3 ?
Y

For COc1ccc2c(c1OC)O/C(=C\c1ncc([N+](=O)[O-])n1C)C2=O , what call appears in the results of this test?
Y

Returns: the outcome recorded for Cc1cc(Cc2cc(C)c(O)c(C)c2)cc(C)c1O in this assay.
N

Look up the recorded call for O=C(c1cccs1)c1ccccc1Cc1ccccc1 in this test.
N

// outcome(item) with item = C/C(N)=C(\C#N)C(=O)c1ccccc1
N
